target of assay: T1, Macaca fascicularis (mf) RET.mmh (Macaca fascicularis)
T1 construct: also called monkey RET
T1 chain: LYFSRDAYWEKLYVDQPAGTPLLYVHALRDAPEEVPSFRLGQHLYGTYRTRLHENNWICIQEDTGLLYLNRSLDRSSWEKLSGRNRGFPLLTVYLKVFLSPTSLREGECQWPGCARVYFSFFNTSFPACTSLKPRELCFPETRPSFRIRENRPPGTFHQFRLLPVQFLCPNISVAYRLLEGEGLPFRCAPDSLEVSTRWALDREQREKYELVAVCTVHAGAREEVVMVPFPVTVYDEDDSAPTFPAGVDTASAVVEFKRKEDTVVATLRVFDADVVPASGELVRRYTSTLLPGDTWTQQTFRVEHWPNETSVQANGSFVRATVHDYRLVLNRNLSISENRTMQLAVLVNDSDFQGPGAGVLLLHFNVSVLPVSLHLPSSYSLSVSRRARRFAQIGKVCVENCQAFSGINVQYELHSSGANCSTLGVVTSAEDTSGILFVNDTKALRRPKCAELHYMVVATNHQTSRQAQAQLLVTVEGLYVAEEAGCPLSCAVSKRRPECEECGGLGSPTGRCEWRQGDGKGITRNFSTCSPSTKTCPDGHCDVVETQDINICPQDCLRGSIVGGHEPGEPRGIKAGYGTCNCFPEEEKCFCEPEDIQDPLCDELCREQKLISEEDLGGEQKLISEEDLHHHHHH
method notes: SPR Biacore T200, mAb capture, 25 C
property name: t½ (min)
Give your result in min as a bare value.

Below: 2 binders and their reported t½.
binder | property name | observed value
H4H8085P (antibody, human IgG4, V domains shown, human IgG4 Fc (H4H prefix)) VH: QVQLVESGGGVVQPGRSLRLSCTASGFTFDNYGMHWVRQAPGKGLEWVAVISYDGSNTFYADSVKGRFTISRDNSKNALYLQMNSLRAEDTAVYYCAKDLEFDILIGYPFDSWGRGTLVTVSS VL: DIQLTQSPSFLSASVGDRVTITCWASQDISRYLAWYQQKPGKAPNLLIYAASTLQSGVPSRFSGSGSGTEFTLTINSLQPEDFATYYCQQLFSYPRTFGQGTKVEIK | t½ | 51
H4H8071P (antibody, human IgG4, V domains shown, human IgG4 Fc (H4H prefix)) VH: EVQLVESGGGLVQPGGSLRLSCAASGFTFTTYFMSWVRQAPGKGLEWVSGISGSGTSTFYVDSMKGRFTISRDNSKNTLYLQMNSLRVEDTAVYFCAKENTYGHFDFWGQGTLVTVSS VL: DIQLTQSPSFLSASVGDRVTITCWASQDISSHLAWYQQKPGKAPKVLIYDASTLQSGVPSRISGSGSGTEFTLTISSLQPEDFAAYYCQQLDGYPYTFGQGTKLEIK | t½ | 43

--- query ---
Prompt: Fill in: t½ of H4H8046P (antibody, human IgG4, V domains shown, human IgG4 Fc (H4H prefix)) VH: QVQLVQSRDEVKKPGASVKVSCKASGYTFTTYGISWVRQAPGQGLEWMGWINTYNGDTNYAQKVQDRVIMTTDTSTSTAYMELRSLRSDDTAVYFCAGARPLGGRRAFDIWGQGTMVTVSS VL: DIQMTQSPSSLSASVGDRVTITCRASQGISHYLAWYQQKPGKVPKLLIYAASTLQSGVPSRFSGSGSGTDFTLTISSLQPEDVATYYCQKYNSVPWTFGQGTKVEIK is ___
Completion: 37
